These data points were gathered from BindingDB's records for doi:10.1021/jm100984y.

target: Proteinase-activated receptor 2 (Homo sapiens, UniProt P55085); test: Agonist activity at PAR2 receptor in human HT-29 cells assessed as induction of intracellular calcium release
Sequence (P55085 whole entry): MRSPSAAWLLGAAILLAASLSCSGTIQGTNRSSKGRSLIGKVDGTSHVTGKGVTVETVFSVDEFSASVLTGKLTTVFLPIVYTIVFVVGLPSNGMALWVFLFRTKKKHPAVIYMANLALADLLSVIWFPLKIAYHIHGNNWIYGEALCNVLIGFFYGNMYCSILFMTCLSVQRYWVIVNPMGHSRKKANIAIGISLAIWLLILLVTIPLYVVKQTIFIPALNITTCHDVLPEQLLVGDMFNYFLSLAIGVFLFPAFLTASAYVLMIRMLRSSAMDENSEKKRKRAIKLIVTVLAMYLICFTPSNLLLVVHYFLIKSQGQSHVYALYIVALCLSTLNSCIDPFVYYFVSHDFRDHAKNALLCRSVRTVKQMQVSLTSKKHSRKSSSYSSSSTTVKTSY
property: pEC50
One number for each entry, as −log10 of the molar value.

# pEC50 (compound: CC[C@H](C)[C@H](NC(=O)[C@H](CC1CCCCC1)NC(=O)c1ccno1)C(=O)Nc1ccc(CC(=O)N2CCC(CN)CC2)cc1 ) is 6.50
